Recorded values, source PubChem BioAssay (NCI).

Tested on: NCI/ADR-RES ovarian
testProtocol: NCI tumour cell line growth inhibition, 48 h
Where a SMILES comes first, the peptide text is derived from it. [ ]: non-standard residue; d: D form. Phe(4-NO2) = N[CH](Cc1ccc([N+](=O)[O-])cc1)C(=O)O
Can you tell me TGI for the items I'm about to list?

Q: What value of measured TGI is listed for O=C(O)c1cc(=O)c2c(OCC(O)COc3cccc4oc(C(=O)O)cc(=O)c34)cccc2o1 ?
Result: > 100 µM

Q: For the compound shown here, O=C(OCc1ccc([N+](=O)[O-])cc1)N1c2ccccc2[C@@]23O[C@]24CCC[C@H]3C#C/C=C\C#C[C@H]14 , give the reported TGI.
Result: > 100 µM

Q: Name the recorded TGI for COC(=O)c1ccccc1NC(=NC1CCCCCC1)NS(=O)(=O)c1ccc(C)cc1 .
Result: > 100 µM

Q: Bench note: what TGI did CC(NC(=O)C(Cc1ccc([N+](=O)[O-])cc1)NC(=O)C(N)CCCCN)C(=O)NC(Cc1ccc([N+](=O)[O-])cc1)C(N)=O (stereo not given) (H-K[Phe(4-NO2)]A[Phe(4-NO2)]-NH2; configuration not given here) show?
Result: > 100 µM

Q: Could you tell me which TGI is on file for N#C[Se]CCN1C(=O)C2C(C1=O)[C@H]1C=C[C@@H]2S1 (stereo not given in full) ?
Result: 7.18 µM

Q: Item O=C([O][Hg][CH2]C1OCCOC1[CH2][Hg][O]C(=O)c1ccccc1)c1ccccc1 (stereo not given) has what recorded TGI?
Result: 40.7 µM

Q: Fill in: TGI of COc1ccc2c(O)c(/C=C3\N=Nc4ccccc43)oc2c1C[C@@H]1CCNC[C@H]1F is ___
Result: 25.9 µM

Q: // returns reported TGI for input O=[N+]([O-])c1ccc(C2=Nn3c(nnc3-c3ccc(Cl)cc3)SC2)o1
Result: 45.1 µM

Q: If you can, please state the reported TGI value of CCc1nc(N)nc(N)c1-c1ccc2nnn(O)c2c1 .
Result: > 100 µM

Q: Quick check: TGI of S=C(NCCNC(=S)[S][Sn]([c]1ccccc1)([c]1ccccc1)[c]1ccccc1)[S][Sn]([c]1ccccc1)([c]1ccccc1)[c]1ccccc1 ?
Result: 0.0976 µM

Q: Which TGI is reported for this compound? CCCCCCCCC/C(=N\NC(=O)c1ccncc1)c1ccc(O)c(O)c1O
Result: 11.4 µM

Q: I'd like to know its TGI. The compound in question is C=C1CCCC(C)(C)C1CCC1(C)CCC(C(C)C(=O)OC)OO1 (stereo not given)
Result: > 18.4 µM

Q: // returns reported TGI for input COC(=O)C1=CO[C@@H](OC2OC(CO)C(O)C(O)C2O)[C@H]2[C@@H](C)[C@@H](O)[C@@H](O)[C@@H]12 (stereo not given in full)
Result: > 100 µM

Q: Give the measured TGI of CC1(C)CC[C@]2(C(=O)O)CC[C@]3(C)C(=CC[C@@H]4[C@@]5(C)C[C@H](O)[C@H](O)[C@@](C)(C(=O)O)[C@@H]5CC[C@]43C)[C@@H]2C1 .
Result: > 100 µM

Q: Report TGI for O=[N+]([O-])c1ccc(C2CC(c3ccccc3)=Nc3ccccc3S2)cc1 (stereo not given) please.
Result: > 100 µM

Q: GET /values?readout=TGI&item= CC(C)(C)[Si](C)(C)OCC1OC(n2cc(I)c(=O)[nH]c2=O)C(O[Si](C)(C)C(C)(C)C)C1O[Si](C)(C)C(C)(C)C (stereo not given)
Result: > 100 µM

Q: I would be grateful if you could share the reported TGI for C=C1C(=O)O[C@H]2C[C@@H]1CC/C(C)=C/CC/C(C)=C/CC[C@@]2(C)O .
Result: > 100 µM

Q: What TGI value was documented for this compound, Cn1ncc2c(Nc3cccc(Cl)c3)nc(Nc3cccc(Cl)c3)nc21 ?
Result: 37.3 µM

Q: TGI lookup needed for CC1(C)CC(=O)C2=C(C1)NC1=C(C2)C(=O)CC(C)(C)C1 , thanks.
Result: > 100 µM

Q: Look up TGI for this compound: C[C@]12CC[C@@H]3c4cc(OC(F)F)c(OS(N)(=O)=O)cc4CC[C@H]3[C@@H]1CC[C@@H]2OS(N)(=O)=O
Result: 28.9 µM

Q: Requested field: TGI. Item: CNC(=O)NCCN1CC2CCC(CC2)C1
Result: > 10 µM

Q: Return reported TGI; argument: O=C1/C(=C/c2ccco2)N=C2Sc3c(nc[nH]c3=O)N12
Result: > 100 µM

Q: // returns reported TGI for input COC(=O)C1=C(OC(=O)/C(=C/c2ccccc2)c2ccc(Cl)cc2)C(C(=O)OC)[C@@]2(O)[C@@H](C(=O)OC)[C@H](C)C[C@@H]1[C@@H]2C(=O)OC (stereo not given in full)
Result: > 100 µM

Q: Fill blank: measured TGI of the compound COc1ccc(-c2c3c(n(C4OC(COC(C)=O)C(OC(C)=O)C(OC(C)=O)C4OC(C)=O)c(=S)c2C#N)CCC3)cc1 (stereo not given) is ____.
Result: > 100 µM

Q: What value of TGI has been recorded for this entry: Cc1ccc(-c2n[nH]c(=O)n2NC(=O)c2ccccc2C(=O)O)cc1
Result: > 100 µM

Q: Look up TGI for this compound: N#Cc1ccc(N2CCOCC2)cc1
Result: > 100 µM

Q: Look at this compound and give its reported TGI. COc1ccc2c(c1)CC[C@@H]1[C@@H]2CC[C@]2(C)c3c(cc(C(=O)O)c4sccc34)C[C@@H]12
Result: 40.2 µM

Q: Request the reported TGI associated with CCN(CC)C1CCC(C2c3cc4c(cc3OC(N3CCOCC3)C2C)OCO4)CC1 (stereo not given)
Result: > 83.1 µM

Q: Sample Cc1c2c(OCC(O)CN3CCN(c4ccccc4)CC3)nn(C)c(=O)c2c(C)n1-c1ccccc1 (stereo not given) — what was its TGI?
Result: 63.8 µM

Q: Return reported TGI; argument: Clc1ccc(C(Cc2cccc(Cl)c2)c2c(Cl)nc(N3CCNCC3)nc2Cl)cc1 (stereo not given)
Result: 36.2 µM

Q: GET /values?readout=TGI&item= C=CCN1C[C@H](C)N([C@@H](c2ccc(C(=O)N3CCCCC3)cc2)c2cccc(OC)c2)C[C@H]1C
Result: > 100 µM

Q: What value of TGI has been recorded for this entry: N#Cc1c(N2CCOCC2)nc(=S)[nH]c1-c1ccccc1
Result: > 100 µM

Q: Reported TGI for CC1=NNC(=O)C1C1CC(c2c[nH]c3ccccc23)=NN(C(N)=O)C1=O (stereo not given) : what is it?
Result: > 100 µM

Q: Requested read-out: TGI. Entry: Nc1ccc(Oc2ccc(C3(c4ccc(Oc5ccc(N)cc5)cc4)C4CC5CC(C4)CC3C5)cc2)cc1
Result: > 100 µM

Q: TGI lookup needed for c1ccc(C(NC2=NCCO2)c2ccccc2)cc1 , thanks.
Result: > 10 µM
